Measured values drawn from paper PMC7747594 for this set.

Target sequence: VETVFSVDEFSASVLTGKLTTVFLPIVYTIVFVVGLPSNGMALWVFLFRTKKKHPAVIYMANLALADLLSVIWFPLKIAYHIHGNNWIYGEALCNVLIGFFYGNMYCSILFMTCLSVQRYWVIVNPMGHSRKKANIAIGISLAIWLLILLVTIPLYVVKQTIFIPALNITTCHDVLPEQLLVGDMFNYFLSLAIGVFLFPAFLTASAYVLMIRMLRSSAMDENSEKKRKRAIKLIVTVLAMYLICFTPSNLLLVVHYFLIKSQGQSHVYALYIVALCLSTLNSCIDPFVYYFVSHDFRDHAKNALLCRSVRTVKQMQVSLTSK
MEASURE: Kd (nM)
The response must be a number in nM with no trailing unit.

-- ask Quote Kd reported for C[C@@H](C1CCCCC1)n1c(-c2cc3c(cc2Br)OCO3)nc2cc(C(=O)Nc3ccc(C#N)cc3)ccc21 please.
-- reply 14
